- target-of-assay: Aldo-keto reductase family 1 member B1 (Rattus norvegicus)
reported-property: IC50

mol-smiles: O=C(O)CCn1ccc(C(=O)c2ccccc2)c1
data-value: 9.7 µM

----------
Each entry below carries its recorded inhibition.
- target-of-assay: Aldo-keto reductase family 1 member A1 (Rattus norvegicus)
- experiment-notes: Inhibition of rat kidney aldehyde reductase at 0.1 mM after 20 mins by spectrometric analysis
reported-property: inhibition (%)

mol-smiles: O=C(O)CCCn1ccc(C(=O)c2ccccc2)c1
reported-property: inhibition
data-value: 22

mol-smiles: O=C(O)CCn1ccc(C(=O)c2ccccc2)c1
reported-property: inhibition
data-value: 20

mol-smiles: O=C(c1ccccc1)c1ccn(CCCc2nn[nH]n2)c1
reported-property: inhibition
data-value: 35

mol-smiles: O=C(c1ccccc1)c1ccn(Cc2nn[nH]n2)c1
reported-property: inhibition
data-value: 23

mol-smiles: O=C(c1ccccc1)c1cccn1-c1nn[nH]n1
reported-property: inhibition
data-value: 18

mol-smiles: O=C(c1ccccc1)c1ccn(-c2nn[nH]n2)c1
reported-property: inhibition
data-value: 18

mol-smiles: O=C(c1ccccc1)c1ccn(CCc2nn[nH]n2)c1
reported-property: inhibition
data-value: 41

mol-smiles: O=C(O)Cn1ccc(C(=O)c2ccccc2)c1
reported-property: inhibition
data-value: 34
